B1: TMEM192 (parent)
chain: LWILHLLLECYIQYHHSKIRNRGY

variants of: B1; test: protein stability index of a GFP-peptide fusion (GPS, HEK-293T) (PSI 1-6); higher = more stable; conditions: c terminus: a fixed tail appended;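 note: lentivirally expressed fusions sorted by FACS into six bins by GFP to DsRed ratio, PSI derived from sequencing read proportions per bin multiplied by bin number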
Output TRUE for protein stability index not less than 2; output FALSE otherwise.

Given `LWILHLLLECYIQYHHSKIRNRYY` , state whether its protein stability index is at least 2.
FALSE

Given `LWILHLLLECYIQYHGSKIRNRGY` , state whether its protein stability index is at least 2.
TRUE

Given `LWILHLLLECYIQYHHSTIRNRGY` , state whether its protein stability index is at least 2.
TRUE

Given `LWILKLLLECYIQYHHSKIRNRGY` , state whether its protein stability index is at least 2.
TRUE

Given `LWILHLTLECYIQYHHSKIRNRGY` , state whether its protein stability index is at least 2.
TRUE

Given `LWILHLRLECYIQYHHSKIRNRGY` , state whether its protein stability index is at least 2.
FALSE

Given `DWILHLLLECYIQYHHSKIRNRGY` , state whether its protein stability index is at least 2.
TRUE

Given `LHILHLLLECYIQYHHSKIRNRGY` , state whether its protein stability index is at least 2.
TRUE

Given `LWILHLLLECDIQYHHSKIRNRGY` , state whether its protein stability index is at least 2.
FALSE

Given `LWILHLLLECYIQYHHSKSRNRGY` , state whether its protein stability index is at least 2.
FALSE

Given `LWILHLLLECYIQYHESKIRNRGY` , state whether its protein stability index is at least 2.
FALSE

Given `LWILHLLLECYIQYHHSKLRNRGY` , state whether its protein stability index is at least 2.
TRUE

Given `LWILHLLLQCYIQYHHSKIRNRGY` , state whether its protein stability index is at least 2.
TRUE
